- measurement_protocol: HTS Assay for Allosteric Antagonists of the Human D2 Dopamine Receptor: Hit Validation in HTRF (AID 624455);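 note: stable D1 dopamine receptor cell line scored for blocking the D1 response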
- test_conditions: Cells stably expressing D1 dopamine receptor, inhibition mode; series mostly up to 46.1 µM
Records with an inconclusive call do not appear. Active and inactive are the calls of the source. Calls come from the whole dose curve; as a rule, active = well fitted inhibition curve with a large enough effect; inconclusive = small, poorly fitted or top-dose-only effect; inactive = no such curve, though single readings can be large or run the other way.
measurement_label: outcome

Consider the following illustrative entries.
CN1CCC(=C2c3ccccc3CC(=O)c3sccc32)CC1 ... inactive
CCOC(=O)C(C)(C)Oc1ccc(Cl)cc1 ... inactive
CN1CCN(CCCN2c3ccccc3Sc3ccc(Cl)cc32)CC1 ... inactive
NC(CO)C(=O)NNCc1ccc(O)c(O)c1O (stereo not drawn) ... inactive
O=c1[nH]cc(F)c(=O)[nH]1 ... inactive

Count: 5. Required value per item: outcome.
1. CC(COc1ccccc1)N(CCCl)Cc1ccccc1 (stereo not drawn)
2. COc1ccccc1N1CCN(CC(O)COc2cccc3ccccc23)CC1 (stereo not drawn)
3. Nc1ccn([C@H]2CC[C@@H](CO)O2)c(=O)n1
4. CCOC(=O)Nc1ccc(NCc2ccc(F)cc2)nc1N
5. OCCN1CCN(CCCN2c3ccccc3Sc3ccc(C(F)(F)F)cc32)CC1

Data returned:
1: inactive; 2: inactive; 3: inactive; 4: inactive; 5: inactive

Count: 5. Required value per item: outcome.
1. O=C(c1ccc(OCCN2CCCCC2)cc1)c1c(-c2ccc(O)cc2)sc2cc(O)ccc12
2. COc1cc2c(c(OC)c1OC)-c1ccc(OC)c(=O)cc1[C@@H](NC(C)=O)CC2
3. Cc1ccccc1N1C(=O)c2cc(S(N)(=O)=O)c(Cl)cc2NC1C (stereo not drawn)
4. C[C@H]1c2cccc(O)c2C(O)=C2C(=O)[C@]3(O)C(O)=C(C(N)=O)C(=O)[C@@H](N(C)C)[C@@H]3[C@@H](O)[C@@H]21
5. COC(=O)Nc1nc2ccc(C(=O)c3cccs3)cc2[nH]1

Data returned:
1: inactive; 2: inactive; 3: inactive; 4: inactive; 5: inactive

Count: 4. Required value per item: outcome.
1. CCc1cccc2c3c([nH]c12)C(CC)(CC(=O)O)OCC3 (stereo not drawn)
2. CCCNCC(O)COc1ccccc1C(=O)CCc1ccccc1 (stereo not drawn)
3. COc1ccc2c(c1)c(CC(=O)O)c(C)n2C(=O)c1ccc(Cl)cc1
4. N[C@@H](Cc1c[nH]c2ccc(O)cc12)C(=O)O

Data returned:
inactive
inactive
inactive
inactive

Count: 4. Required value per item: outcome.
1. CN1C2CCC1CC(OC(=O)C(CO)c1ccccc1)C2 (stereo not drawn)
2. Cn1ccc2cc3c(cc21)CCN3C(=O)Nc1cccnc1
3. NC(=O)NO
4. COc1ccccc1OCC(O)CN1CCN(CC(=O)Nc2c(C)cccc2C)CC1 (stereo not drawn)

Data returned:
1: inactive; 2: inactive; 3: inactive; 4: inactive

Count: 3. Required value per item: outcome.
1. C[C@](N)(Cc1ccc(O)c(O)c1)C(=O)O
2. CN1C(C(=O)Nc2ccccn2)=C(O)c2ccccc2S1(=O)=O
3. CN(C)C(=O)C(CCN1CCC(O)(c2ccc(Cl)cc2)CC1)(c1ccccc1)c1ccccc1

Data returned:
1: inactive; 2: inactive; 3: inactive

Count: 6. Required value per item: outcome.
1. NC(=O)OCC(COC(N)=O)c1ccccc1
2. Clc1ccc(C(c2ccccc2Cl)C(Cl)Cl)cc1 (stereo not drawn)
3. CC(C(=O)O)c1cccc(C(=O)c2ccccc2)c1 (stereo not drawn)
4. O=C1Cc2cc(CCN3CCN(c4nsc5ccccc45)CC3)c(Cl)cc2N1
5. CNCCCC12CCC(c3ccccc31)c1ccccc12
6. Cc1cn([C@H]2C=C[C@@H](CO)O2)c(=O)[nH]c1=O

Data returned:
["inactive", "inactive", "inactive", "inactive", "inactive", "inactive"]

Count: 4. Required value per item: outcome.
1. CCN1CCCC1CNC(=O)c1cc(S(=O)(=O)CC)c(N)cc1OC (stereo not drawn)
2. CN(C)CCC=C1c2ccccc2C=Cc2ccccc21
3. CCC1(C)CC(=O)NC1=O (stereo not drawn)
4. O=C(Nc1ccc([N+](=O)[O-])cc1Cl)c1cc(Cl)ccc1O

Data returned:
1. inactive
2. inactive
3. inactive
4. inactive

Count: 7. Required value per item: outcome.
1. CC1COc2c(N3CCN(C)CC3)c(F)cc3c(=O)c(C(=O)O)cn1c23 (stereo not drawn)
2. COc1ccc(CCN(C)CCCC(C#N)(c2ccc(OC)c(OC)c2)C(C)C)cc1OC (stereo not drawn)
3. CC(C)C(=O)Nc1ccc([N+](=O)[O-])c(C(F)(F)F)c1
4. Clc1ccc2nsnc2c1NC1=NCCN1
5. CN1CCC(=C2c3ccccc3C=Cc3ccccc32)CC1
6. COc1cc2nc(N3CCN(C(=O)C4COc5ccccc5O4)CC3)nc(N)c2cc1OC (stereo not drawn)
7. COc1ccc(C2CNC(=O)C2)cc1OC1CCCC1 (stereo not drawn)

Data returned:
1. inactive
2. inactive
3. inactive
4. inactive
5. inactive
6. inactive
7. inactive
